From: patent US10363239B2

inhibition at 1 µM: recorded values
- system under test: FLNA pentapeptide of SEQ ID NO: 1 (Bn-VAKGL) (Homo sapiens)
- procedure text: FITC-NLX-based FLNA screening assay (inhibition of FITC-naloxone binding to Bn-VAKGL on streptavidin plates)
- experimental context: read-out: Percent Binding Inhibition, FLNA-binding compound 1 μM; 10 nM FITC-NLX

compound | system under test | inhibition at 1 µM [%]
COc1ccc(S(=O)(=O)N2CCOC23CCN(S(=O)(=O)c2ccc(C(C)=O)cc2)CC3)cc1 | FLNA pentapeptide of SEQ ID NO: 1 (Bn-VAKGL) (Homo sapiens) | 41.4
O=C1CN(C2CCc3ccccc3C2)C2(CCN(S(=O)(=O)c3ccccc3)CC2)N1 (stereo not shown) [C0136M(P5)] | FLNA pentapeptide of SEQ ID NO: 1 (Bn-VAKGL) (Homo sapiens) | 58.2
COc1cccc(CC(=O)CC2c3c(cc4c(c3OC)OCO4)CC[N+]2(C)C)c1OC (stereo not shown) | FLNA pentapeptide of SEQ ID NO: 1 (Bn-VAKGL) (Homo sapiens) | 57
Cc1ccc(S(=O)(=O)N2CCC3(CC2)OCCN3S(=O)(=O)c2ccc(C)cc2)cc1 | FLNA pentapeptide of SEQ ID NO: 1 (Bn-VAKGL) (Homo sapiens) | 51.3
COc1cc(F)ccc1C(=O)CC1c2c(cc3c(c2OC)OCO3)CC[N+]1(C)C (stereo not shown) | FLNA pentapeptide of SEQ ID NO: 1 (Bn-VAKGL) (Homo sapiens) | 57.3
COc1ccccc1C(=O)CC1c2c(cc3c(c2OC)OCO3)CC[N+]1(C)C (stereo not shown) | FLNA pentapeptide of SEQ ID NO: 1 (Bn-VAKGL) (Homo sapiens) | 56.6
COc1ccccc1S(=O)(=O)N1CCC2(CC1)OCCN2S(=O)(=O)c1ccccc1OC | FLNA pentapeptide of SEQ ID NO: 1 (Bn-VAKGL) (Homo sapiens) | 48.8
CC(=O)c1ccc(S(=O)(=O)N2CC(CN(C)C)OC23CCNCC3)cc1 (stereo not shown) [Compound C0118M] | FLNA pentapeptide of SEQ ID NO: 1 (Bn-VAKGL) (Homo sapiens) | 62.4
COc1ccc(CC(=O)CC2c3c(cc4c(c3OC)OCO4)CC[N+]2(C)C)c(OC)c1 (stereo not shown) | FLNA pentapeptide of SEQ ID NO: 1 (Bn-VAKGL) (Homo sapiens) | 50.2
O=S(=O)(c1ccc(OC(F)(F)F)cc1)N1CCC2(CC1)OCCN2S(=O)(=O)c1ccc(OC(F)(F)F)cc1 | FLNA pentapeptide of SEQ ID NO: 1 (Bn-VAKGL) (Homo sapiens) | 51.8
COc1c2c(cc3c1C(CC(=O)CCc1ccccc1)[N+](C)(C)CC3)OCO2 (stereo not shown) | FLNA pentapeptide of SEQ ID NO: 1 (Bn-VAKGL) (Homo sapiens) | 42.3
CC(=O)c1ccc(S(=O)(=O)N2C(Cc3c[nH]cn3)C(=O)NC23CCNCC3)cc1 (stereo not shown) [Compound C0119M] | FLNA pentapeptide of SEQ ID NO: 1 (Bn-VAKGL) (Homo sapiens) | 60
CC1CCC(C(C)C)C(OCC(O)CN2CCC(=O)CC2)C1 (stereo not shown) | FLNA pentapeptide of SEQ ID NO: 1 (Bn-VAKGL) (Homo sapiens) | 42
CC1CN(CC(O)COc2ccc(Br)c(F)c2)CC(C)O1 (stereo not shown) | FLNA pentapeptide of SEQ ID NO: 1 (Bn-VAKGL) (Homo sapiens) | 56.9
COc1c2c(cc3c1C(CC(=O)c1ccncc1)[N+](C)(C)CC3)OCO2 (stereo not shown) | FLNA pentapeptide of SEQ ID NO: 1 (Bn-VAKGL) (Homo sapiens) | 41.7
COCOc1ccc(CCC(=O)CC2c3c(cc4c(c3OC)OCO4)CC[N+]2(C)C)cc1 (stereo not shown) | FLNA pentapeptide of SEQ ID NO: 1 (Bn-VAKGL) (Homo sapiens) | 57.1
CC1CN(CC(O)COc2ccccc2)CC(C)O1 (stereo not shown) | FLNA pentapeptide of SEQ ID NO: 1 (Bn-VAKGL) (Homo sapiens) | 53.2
COc1cccc(OC)c1CC(=O)CC1c2c(cc3c(c2OC)OCO3)CC[N+]1(C)C (stereo not shown) | FLNA pentapeptide of SEQ ID NO: 1 (Bn-VAKGL) (Homo sapiens) | 62.1
CC1CCC(C(C)C)C(OCC(O)CN2CCc3ccccc3C2)C1 (stereo not shown) | FLNA pentapeptide of SEQ ID NO: 1 (Bn-VAKGL) (Homo sapiens) | 56.3
COc1ccc(CCC(=O)CC2c3c(cc4c(c3OC)OCO4)CC[N+]2(C)C)cc1 (stereo not shown) | FLNA pentapeptide of SEQ ID NO: 1 (Bn-VAKGL) (Homo sapiens) | 41.9
CC(=O)c1ccc(S(=O)(=O)N2CCC3(CC2)NC(=O)CN3S(=O)(=O)c2ccc(C(C)=O)cc2)cc1 | FLNA pentapeptide of SEQ ID NO: 1 (Bn-VAKGL) (Homo sapiens) | 49.2
COc1ccc(OC)c(CCC(=O)CC2c3c(cc4c(c3OC)OCO4)CC[N+]2(C)C)c1 (stereo not shown) | FLNA pentapeptide of SEQ ID NO: 1 (Bn-VAKGL) (Homo sapiens) | 44.4
COc1c2c(cc3c1C(CC(=O)c1ccc(C#N)cc1)[N+](C)(C)CC3)OCO2 (stereo not shown) | FLNA pentapeptide of SEQ ID NO: 1 (Bn-VAKGL) (Homo sapiens) | 54.3
COc1ccc(C(=O)CC2c3c(cc4c(c3OC)OCO4)CC[N+]2(C)C)c(O)c1 (stereo not shown) | FLNA pentapeptide of SEQ ID NO: 1 (Bn-VAKGL) (Homo sapiens) | 49.4
O=S(=O)(c1ccc(Br)cc1F)N1CCC2(CC1)OCCN2S(=O)(=O)c1ccc(Br)cc1F | FLNA pentapeptide of SEQ ID NO: 1 (Bn-VAKGL) (Homo sapiens) | 50.5
COc1ccc(S(=O)(=O)N2CCOC23CCN(CC2CC2)CC3)cc1 [Compound C0090M] | FLNA pentapeptide of SEQ ID NO: 1 (Bn-VAKGL) (Homo sapiens) | 55.8
COc1c2c(cc3c1C(CC(=O)Cc1ccc(C#N)cc1)[N+](C)(C)CC3)OCO2 (stereo not shown) | FLNA pentapeptide of SEQ ID NO: 1 (Bn-VAKGL) (Homo sapiens) | 51.7
O=C1CN(Cc2ccccc2)C2(CCN(CC3CC3)CC2)N1 [Compound C0125M] | FLNA pentapeptide of SEQ ID NO: 1 (Bn-VAKGL) (Homo sapiens) | 63.3
